Tested on: Trachea
Assay: Inhibition of Ach-induced contraction in Sprague-Dawley rat trachea assessed as tracheal tension at 10^-8 mol/L (reference value: 0.63 to 0.98 g)
Assay type: functional
Readout name: Activity (g)

[[record]]
compound = "C[C@H]1CC[C@H]2[C@@](C)(O)[C@@H]3CC[C@@H]4[C@@H](C[C@H]5[C@H]4CC(=O)[C@H]4C[C@@H](O)CC[C@@]45C)[C@@H]3C[N+]2([O-])C1 (stereo not given in full)"
unit_label = "g"
obs_value = 0.6

[[record]]
compound = "C[C@H]1CC[C@@H]2N(C1)C[C@H]1[C@@H]3C[C@H]4[C@@H](CC(=O)[C@H]5C[C@@H](O)CC[C@@]54C)[C@@H]3CC[C@H]1[C@]2(C)O [IMPERIALINE]"
unit_label = "g"
obs_value = 0.55

[[record]]
compound = "C[C@H]1CC[C@H]2N(C1)C[C@H]1[C@@H]3C[C@H]4[C@@H](CC(=O)[C@H]5C[C@@H](O[C@@H]6O[C@H](CO)[C@@H](O)[C@H](O)[C@H]6O)CC[C@@]54C)[C@@H]3CC[C@@H]1[C@@]2(C)O"
unit_label = "g"
obs_value = 0.84

[[record]]
compound = "C[C@@H]1CN[C@H]2[C@@H](C)[C@@]3(CC[C@]4(O)[C@@H]5CC(=O)[C@H]6C[C@@H](O)CC[C@]6(C)[C@H]5C[C@]45O[C@]53C)O[C@@H]2C1"
unit_label = "g"
obs_value = 0.55

[[record]]
compound = "C[C@@H]1CC[C@H]2N(C1)C[C@H]1[C@@H]3C[C@H]4[C@@H](CC(=O)[C@H]5C[C@@H](O)CC[C@@]54C)[C@@H]3CC[C@@H]1[C@]2(C)O"
unit_label = "g"
obs_value = 0.51


----------
Entries and their measured Activity follow.
Tested on: Trachea
Assay: Inhibition of KCl-induced contraction in Sprague-Dawley rat trachea assessed as maximal diastolic rate at 10^-8 mol/L (reference value: 7 +/- 0.3%)
Type: functional
Parameters: scale not given: the % may be the effect or the level left
Readout name: Activity (%)

[[record]]
input_smiles = "C[C@H]1CC[C@H]2N(C1)C[C@H]1[C@@H]3C[C@H]4[C@@H](CC(=O)[C@H]5C[C@@H](O[C@@H]6O[C@H](CO)[C@@H](O)[C@H](O)[C@H]6O)CC[C@@]54C)[C@@H]3CC[C@@H]1[C@@]2(C)O"
obs_value = 6.2

[[record]]
input_smiles = "C[C@@H]1CC[C@H]2N(C1)C[C@H]1[C@@H]3C[C@H]4[C@@H](CC(=O)[C@H]5C[C@@H](O)CC[C@@]54C)[C@@H]3CC[C@@H]1[C@]2(C)O"
obs_value = 5.2


----------
Activity by entry:
System: Trachea
Experiment: Inhibition of Ach-induced contraction in Sprague-Dawley rat trachea assessed as tracheal tension at 10^-7 mol/L (reference value: 0.63 to 0.98 g)
Type: functional
Readout name: Activity (g)

[[record]]
input_smiles = "C[C@H]1CC[C@H]2[C@@H](C)[C@H]3CC[C@@H]4[C@@H](C[C@H]5[C@H]4CC(=O)[C@H]4C[C@@H](O)CC[C@@]45C)[C@@H]3CN2C1"
readout_name = "Activity"
unit_label = "g"
obs_value = 0.56

[[record]]
input_smiles = "C[C@@H]1CC[C@H]2N(C1)C[C@H]1[C@@H]3C[C@H]4[C@@H](CC(=O)[C@H]5C[C@@H](O)CC[C@@]54C)[C@@H]3CC[C@@H]1[C@]2(C)O"
readout_name = "Activity"
unit_label = "g"
obs_value = 0.48

[[record]]
input_smiles = "C[C@H]1CC[C@@H]2N(C1)C[C@H]1[C@@H]3C[C@H]4[C@@H](CC(=O)[C@H]5C[C@@H](O)CC[C@@]54C)[C@@H]3CC[C@H]1[C@]2(C)O"
readout_name = "Activity"
unit_label = "g"
obs_value = 0.52

[[record]]
input_smiles = "C[C@@H]1CN[C@H]2[C@@H](C)[C@@]3(CC[C@]4(O)[C@@H]5CC(=O)[C@H]6C[C@@H](O)CC[C@]6(C)[C@H]5C[C@]45O[C@]53C)O[C@@H]2C1"
readout_name = "Activity"
unit_label = "g"
obs_value = 0.53

[[record]]
input_smiles = "C[C@H]1CC[C@@H]2N(C1)C[C@H]1[C@@H]3C[C@H]4[C@@H](CC(=O)[C@H]5C[C@@H](O[C@@H]6O[C@H](CO)[C@@H](O)[C@H](O)[C@H]6O)CC[C@@]54C)[C@@H]3CC[C@H]1[C@]2(C)O"
readout_name = "Activity"
unit_label = "g"
obs_value = 0.76


Hey, just so you know, these numbers are from ChEMBL document CHEMBL3785034.
